These entries and their values trace back to paper PMC8125528.

# Test system: MCF-7 cells
# procedureText: MTT antiproliferative assay, MCF-7
# Type: cell-based
# conditionSet: Homo sapiens, MCF7; breast MCF-7 cells, 72 h, MTT assay, 0.1-100 µM; read-out: Estimated IC50, MCF-7
# Experimental: Each experiment was performed in quadruplicate and independently repeated.
assayEndpoint: IC50

Some compounds with known IC50 results, for comparison:
Quick check: IC50 on MCF-7 cells, item C[C@]12CC[C@@H]3c4cc([N+](=O)[O-])c(O)cc4CC[C@H]3[C@@H]1CCC2=NO ? 16.8 µM

Can you check C[C@]12CC[C@@H]3c4ccc(O)cc4CC[C@H]3[C@@H]1CCC2=O [Compound 1, estrone, reference compound] next? 41.9 µM

Can you check C[C@]12CC=C3c4ccc(O)cc4CCC3C1CCC2=NO (stereo partly shown) next? 25.6 µM

With those in mind, consider the next compound.
Quick check: IC50 on MCF-7 cells, item C[C@]12CC[C@@H]3c4ccc(O)cc4CC[C@H]3[C@@H]1CCC2=NO ? 26.7 µM
